# ASSAY REMARKS: Pharmacokinetics of AS and DHA in rat plasma after single and multiple intravenous AS injections (automated blood sampler, LC-MS/MS)
# Type: in vivo, Sprague-Dawley rats
# PARTICULARS: male, Sprague-Dawley, rat, plasma, iv, 20 mg/kg, Chinese formulation (AS/NaHCO3), 20 mg/kg i.v. daily for 3 days, male rats, Period 1, Day 3; read-out: AUC0–3 h
READOUT: AUC(0-t) (ng·h/mL)

[a] C[C@H]1[C@H](OC(=O)CCC(=O)O)O[C@@H]2O[C@@]3(C)CC[C@H]4[C@H](C)CC[C@@H]1[C@@]24OO3 [AS, artesunate]
[b] C[C@H]1[C@@H](O)O[C@@H]2O[C@@]3(C)CC[C@H]4[C@H](C)CC[C@@H]1[C@@]24OO3 [DHA, dihydroartemisinin]
Exercise: Compare reported AUC(0-t) values for a and b . Which is lower? Lab log: write the label of the selected item as the result.
Solution: a

---

# ASSAY REMARKS: Pharmacokinetics of AS and DHA in rat plasma after single and multiple intravenous AS injections (automated blood sampler, LC-MS/MS)
# Format: in vivo, Sprague-Dawley rats
# PARTICULARS: male, Sprague-Dawley, rat, plasma, iv, 20 mg/kg, WRAIR formulation (AS/0.3M PBS Buffer), 20 mg/kg i.v. daily for 3 days, male rats, Period 2, Day 3; read-out: AUCinfininty
READOUT: AUC (ng·h/mL)

[a] C[C@H]1[C@@H](O)O[C@@H]2O[C@@]3(C)CC[C@H]4[C@H](C)CC[C@@H]1[C@@]24OO3 [DHA, dihydroartemisinin]
[b] C[C@H]1[C@H](OC(=O)CCC(=O)O)O[C@@H]2O[C@@]3(C)CC[C@H]4[C@H](C)CC[C@@H]1[C@@]24OO3 [AS, artesunate]
Exercise: // task: argmin of AUC over [ a , b ] Respond with the label that goes with your answer.
Solution: b
(b: 673 ng·h/mL, a: 1050 ng·h/mL)

---

# ASSAY REMARKS: Pharmacokinetics of AS and DHA in rat plasma after single and multiple intravenous AS injections (automated blood sampler, LC-MS/MS)
# Type: in vivo, Sprague-Dawley rats
# PARTICULARS: male, Sprague-Dawley, rat, plasma, iv, 20 mg/kg, Chinese formulation (AS/NaHCO3), 20 mg/kg i.v. daily for 3 days, male rats, Period 1, Day 3
READOUT: MRT (min)

>  <COMPOUND>
C[C@H]1[C@@H](O)O[C@@H]2O[C@@]3(C)CC[C@H]4[C@H](C)CC[C@@H]1[C@@]24OO3 [DHA, dihydroartemisinin]

>  <MRT / min>
21

$$$$
>  <COMPOUND>
C[C@H]1[C@H](OC(=O)CCC(=O)O)O[C@@H]2O[C@@]3(C)CC[C@H]4[C@H](C)CC[C@@H]1[C@@]24OO3 [AS, artesunate]

>  <MRT / min>
17.4

$$$$

---

# ASSAY REMARKS: Pharmacokinetics of AS and DHA in rat plasma after single and multiple intravenous AS injections (automated blood sampler, LC-MS/MS)
# Type: in vivo, Sprague-Dawley rats
# PARTICULARS: male, Sprague-Dawley, rat, plasma, iv, 20 mg/kg, WRAIR formulation (AS/0.3M PBS Buffer), 20 mg/kg i.v. daily for 3 days, male rats, Period 2, Day 1; read-out: t1/2 elimination (converted)
READOUT: half-life (min)

[a] C[C@H]1[C@@H](O)O[C@@H]2O[C@@]3(C)CC[C@H]4[C@H](C)CC[C@@H]1[C@@]24OO3 [DHA, dihydroartemisinin]
[b] C[C@H]1[C@H](OC(=O)CCC(=O)O)O[C@@H]2O[C@@]3(C)CC[C@H]4[C@H](C)CC[C@@H]1[C@@]24OO3 [AS, artesunate]
Exercise: Could you tell me which of a and b has the lower half-life reading? Mark your answer with the label of the selected entry.
Solution: b
(b: 26.4 min, a: 54.6 min)

---

# ASSAY REMARKS: Pharmacokinetics of AS and DHA in rat plasma after single and multiple intravenous AS injections (automated blood sampler, LC-MS/MS)
# Format: in vivo, Sprague-Dawley rats
# PARTICULARS: male, Sprague-Dawley, rat, plasma, iv, 20 mg/kg, Chinese formulation (AS/NaHCO3), 20 mg/kg i.v. daily for 3 days, male rats, Period 1, Day 3; read-out: t1/2 elimination (converted)
READOUT: half-life (min)

[A] C[C@H]1[C@H](OC(=O)CCC(=O)O)O[C@@H]2O[C@@]3(C)CC[C@H]4[C@H](C)CC[C@@H]1[C@@]24OO3 [AS, artesunate]
[B] C[C@H]1[C@@H](O)O[C@@H]2O[C@@]3(C)CC[C@H]4[C@H](C)CC[C@@H]1[C@@]24OO3 [DHA, dihydroartemisinin]
Exercise: Determine, for A and B , which has the greater value of half-life. Please reply using the label of the selected record.
Solution: B

---

# ASSAY REMARKS: Pharmacokinetics of AS and DHA in rat plasma after single and multiple intravenous AS injections (automated blood sampler, LC-MS/MS)
# Assay type: in vivo, Sprague-Dawley rats
# PARTICULARS: male, Sprague-Dawley, rat, plasma, iv, 20 mg/kg, WRAIR formulation (AS/0.3M PBS Buffer), 20 mg/kg i.v. daily for 3 days, male rats, Period 1, Day 1
READOUT: Tmax (min)

[P] C[C@H]1[C@H](OC(=O)CCC(=O)O)O[C@@H]2O[C@@]3(C)CC[C@H]4[C@H](C)CC[C@@H]1[C@@]24OO3 [AS, artesunate]
[Q] C[C@H]1[C@@H](O)O[C@@H]2O[C@@]3(C)CC[C@H]4[C@H](C)CC[C@@H]1[C@@]24OO3 [DHA, dihydroartemisinin]
Exercise: Which shows the larger Tmax value: P or Q ? Record your answer as the label of the chosen record.
Solution: Q
(Q: 15 min, P: 4.98 min)

---

# ASSAY REMARKS: Pharmacokinetics of AS and DHA in rat plasma after single and multiple intravenous AS injections (automated blood sampler, LC-MS/MS)
# Format: in vivo, Sprague-Dawley rats
# PARTICULARS: male, Sprague-Dawley, rat, plasma, iv, 20 mg/kg, Chinese formulation (AS/NaHCO3), 20 mg/kg i.v. daily for 3 days, male rats, Period 2, Day 3; read-out: AUC0–3 h
READOUT: AUC(0-t) (ng·h/mL)

>  <COMPOUND>
C[C@H]1[C@@H](O)O[C@@H]2O[C@@]3(C)CC[C@H]4[C@H](C)CC[C@@H]1[C@@]24OO3 [DHA, dihydroartemisinin]

>  <AUC(0-t) (ng·h/mL)>
905

$$$$
>  <COMPOUND>
C[C@H]1[C@H](OC(=O)CCC(=O)O)O[C@@H]2O[C@@]3(C)CC[C@H]4[C@H](C)CC[C@@H]1[C@@]24OO3 [AS, artesunate]

>  <AUC(0-t) (ng·h/mL)>
665

$$$$

---

# ASSAY REMARKS: Pharmacokinetics of AS and DHA in rat plasma after single and multiple intravenous AS injections (automated blood sampler, LC-MS/MS)
# Assay type: in vivo, Sprague-Dawley rats
# PARTICULARS: male, Sprague-Dawley, rat, plasma, iv, 20 mg/kg, WRAIR formulation (AS/0.3M PBS Buffer), 20 mg/kg i.v. daily for 3 days, male rats, Period 1, Day 1
READOUT: clearance (mL/min/kg)
Kindly provide the numeric value in mL/min/kg only, without the unit symbol.

Exercise: Would you kindly share the measured clearance for C[C@H]1[C@H](OC(=O)CCC(=O)O)O[C@@H]2O[C@@]3(C)CC[C@H]4[C@H](C)CC[C@@H]1[C@@]24OO3 [AS, artesunate] ?
Solution: 378

---

# ASSAY REMARKS: Pharmacokinetics of AS and DHA in rat plasma after single and multiple intravenous AS injections (automated blood sampler, LC-MS/MS)
# Assay type: in vivo, Sprague-Dawley rats
# PARTICULARS: male, Sprague-Dawley, rat, plasma, iv, 20 mg/kg, Chinese formulation (AS/NaHCO3), 20 mg/kg i.v. daily for 3 days, male rats, Period 2, Day 1
READOUT: Tmax (min)

[P] C[C@H]1[C@@H](O)O[C@@H]2O[C@@]3(C)CC[C@H]4[C@H](C)CC[C@@H]1[C@@]24OO3 [DHA, dihydroartemisinin]
[Q] C[C@H]1[C@H](OC(=O)CCC(=O)O)O[C@@H]2O[C@@]3(C)CC[C@H]4[C@H](C)CC[C@@H]1[C@@]24OO3 [AS, artesunate]
Exercise: I'd appreciate it if you could identify which of P and Q has the greater Tmax. Provide the label of your selected option as the answer.
Solution: P
(P: 15 min, Q: 4.98 min)

---

# ASSAY REMARKS: Pharmacokinetics of AS and DHA in rat plasma after single and multiple intravenous AS injections (automated blood sampler, LC-MS/MS);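 also: blood drawn through a jugular vein catheter by an automated sampling system, plasma drug levels measured by LC-MS/MS with positive electrospray ionization against standard curves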
# Format: in vivo, Sprague-Dawley rats
# PARTICULARS: male, Sprague-Dawley, rat, plasma, iv, 20 mg/kg, Chinese formulation (AS/NaHCO3), 20 mg/kg i.v. daily for 3 days, male rats, Period 1, Day 3
READOUT: average plasma concentration over 0–72 h (Cav = AUC0–72 h/72) (ng·h/mL)

[I] C[C@H]1[C@@H](O)O[C@@H]2O[C@@]3(C)CC[C@H]4[C@H](C)CC[C@@H]1[C@@]24OO3 [DHA, dihydroartemisinin]
[II] C[C@H]1[C@H](OC(=O)CCC(=O)O)O[C@@H]2O[C@@]3(C)CC[C@H]4[C@H](C)CC[C@@H]1[C@@]24OO3 [AS, artesunate]
Exercise: Please indicate which item has the smaller measured average plasma concentration over 0–72 h (Cav = AUC0–72 h/72): I versus II Provide the label of your selected option as the answer.
Solution: II
